Reference source for all entries: patent US20250129069A1

Biological target: human Werner helicase (WRN, amino acids 517-1235 with L1074F point mutation) (Homo sapiens (Human), UniProt Q14191, L1074F)
Sequence (Q14191 other isoform, or with tags, fused parts or gaps L1074F (already in the parent)): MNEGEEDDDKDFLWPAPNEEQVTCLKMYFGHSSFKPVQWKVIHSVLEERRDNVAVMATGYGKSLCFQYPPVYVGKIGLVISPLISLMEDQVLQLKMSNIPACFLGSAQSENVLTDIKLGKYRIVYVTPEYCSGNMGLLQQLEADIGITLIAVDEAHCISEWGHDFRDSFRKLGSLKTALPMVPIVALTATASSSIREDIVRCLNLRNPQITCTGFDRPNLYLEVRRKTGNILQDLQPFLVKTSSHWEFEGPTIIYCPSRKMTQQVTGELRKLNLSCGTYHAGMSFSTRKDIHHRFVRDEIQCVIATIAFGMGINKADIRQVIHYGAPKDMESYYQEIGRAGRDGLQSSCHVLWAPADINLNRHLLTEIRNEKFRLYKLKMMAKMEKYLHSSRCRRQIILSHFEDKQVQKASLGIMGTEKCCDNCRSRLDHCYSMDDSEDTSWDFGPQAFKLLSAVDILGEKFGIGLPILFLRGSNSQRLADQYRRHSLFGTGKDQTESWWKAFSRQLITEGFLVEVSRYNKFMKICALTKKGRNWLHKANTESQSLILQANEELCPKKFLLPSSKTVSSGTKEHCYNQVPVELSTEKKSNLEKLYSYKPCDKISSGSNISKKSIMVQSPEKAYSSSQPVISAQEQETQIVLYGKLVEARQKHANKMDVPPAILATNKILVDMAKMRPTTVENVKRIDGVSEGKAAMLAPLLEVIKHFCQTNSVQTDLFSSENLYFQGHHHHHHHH
Experiment: WRN (BV08) ADP-Glo assay
Conditions: human WRN (aa 517-1235, L1074F), read-out: ADP-Glo_hWRN_IC50
pIC50: −log10 of the molar value.

MOLECULE	pIC50
CCc1c(N2CCN(C(=O)c3c(Oc4cnn(C)c4)ncc(C)c3O)CC2)c(=O)c2nn(-c3ccnc(OC)c3)nc2n1CC(=O)NC12CC(C(C)C)(C1)C2	7.30 to 8.30
CCc1c(N2CCN(C(=O)c3c(OC)ncc(COC)c3O)CC2)c(=O)c2nn(-c3ccnc(OC)c3)nc2n1CC(=O)NC12CC(C(C)C)(C1)C2	7.30 to 8.30
CCc1c(N2CCN(C(=O)c3ncnc(C)c3O)[C@H]3CC[C@@H]32)c(=O)c2nn(-c3ccnc(OC)c3)nc2n1CC(=O)Nc1ccc(C(F)(F)F)cc1Cl	≥ 8.30
CCc1c(N2CCN(C(=O)c3ncnc(C)c3O)[C@H]3CC[C@@H]32)c(=O)c2nn(-c3ccnc(C)c3)nc2n1CC(=O)Nc1ccc(C(F)(F)F)cc1Cl [Compound I-9]	7.30 to 8.30
CCc1c(N2CCN(C(=O)c3ncnc(C)c3O)[C@H]3CC[C@@H]32)c(=O)c2nn(C3=CCO[C@H](C)C3)nc2n1CC(=O)NC12CC(C3CC3)(C1)C2 (single isomer, unassigned) [Compound I-180]	7.30 to 8.30
